For each entry below, report its TERMINAL_BW value.
- Organism: Rattus norvegicus
- assay.notes: Open TG-GATES - Regimen: Single
- Type: toxicity, organism-based, Sprague-Dawley
- Design: regimen Single, gender Male, age 6 weeks
- condition.label: in vivo, po, 0 mg/kg, 9 h, route gavage, dose level Control
Provide the reading as a plain figure in g.

Query: Hello, please tell me recorded TERMINAL_BW for this one: Nc1c2c(nc3ccccc13)CCCC2 [TACRINE]
Response: 205.8

Query: Hello, please tell me recorded TERMINAL_BW for this one: CC(C)NNC(=O)c1ccncc1 [IPRONIAZID]
Response: 200.8

Query: Hello, please tell me recorded TERMINAL_BW for this one: CCOc1ccc(NC(C)=O)cc1 [PHENACETIN]
Response: 210.5

Query: Hello, please tell me recorded TERMINAL_BW for this one: O=C(OC[C@H]1O[C@@H](OC(=O)c2cc(O)c(O)c(OC(=O)c3cc(O)c(O)c(O)c3)c2)[C@H](OC(=O)c2cc(O)c(O)c(OC(=O)c3cc(O)c(O)c(O)c3)c2)[C@@H](OC(=O)c2cc(O)c(O)c(OC(=O)c3cc(O)c(O)c(O)c3)c2)[C@@H]1OC(=O)c1cc(O)c(O)c(OC(=O)c2cc(O)c(O)c(O)c2)c1)c1cc(O)c(O)c(OC(=O)c2cc(O)c(O)c(O)c2)c1 [TANNIC ACID]
Response: 184.6

Query: Hello, please tell me recorded TERMINAL_BW for this one: Brc1ccccc1 [BROMOBENZENE]
Response: 191.1

Data origin: ChEMBL document CHEMBL3885861
